study system: CYP1A2 (Homo sapiens)
Sequence (P05177 1-516): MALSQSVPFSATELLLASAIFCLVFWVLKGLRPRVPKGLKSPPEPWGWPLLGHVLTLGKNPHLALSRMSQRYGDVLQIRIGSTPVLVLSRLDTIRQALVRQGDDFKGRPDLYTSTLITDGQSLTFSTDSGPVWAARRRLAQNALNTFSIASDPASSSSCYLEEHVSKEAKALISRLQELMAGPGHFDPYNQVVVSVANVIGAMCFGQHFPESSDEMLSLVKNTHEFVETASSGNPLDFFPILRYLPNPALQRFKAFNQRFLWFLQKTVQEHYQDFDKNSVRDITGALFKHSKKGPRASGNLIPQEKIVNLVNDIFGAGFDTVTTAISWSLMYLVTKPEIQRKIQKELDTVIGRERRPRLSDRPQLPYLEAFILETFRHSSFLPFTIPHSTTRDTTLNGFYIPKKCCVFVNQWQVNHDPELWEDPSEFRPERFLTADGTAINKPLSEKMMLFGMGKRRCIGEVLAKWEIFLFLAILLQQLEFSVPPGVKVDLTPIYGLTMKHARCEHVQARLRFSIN
readout name: IC50

[in] Returns the measured IC50 for the input compound. Input: CC(O)c1ccc(CCOc2ccc(CC3SC(=O)NC3=O)cc2)nc1 (racemic) [MIN-102]
[out] > 100 µM
